Entry source: ChEMBL document CHEMBL4513216

test: Toxicity liver stage against HepG2, at 10uM; type: cell-based; set-up: test concentration 10 uM, cell line HepG2-A16-CD81EGFP; settings: human, HepG2-A16-CD81EGFP cells; read-out: INHIBITION
Answer each item with its documented cytotoxicity at 10 µM.
Hi! Could you send only the number? It should be in %, unit omitted.

input: Return reported cytotoxicity at 10 µM; argument: O=C(c1ccccn1)N1CCC(Oc2ncccc2Cl)CC1
output: 3.07

input: Return reported cytotoxicity at 10 µM; argument: COc1ccc(NC(=O)Cc2c(C)nc3c(c2C)c(=O)[nH]n3C)cn1
output: 7.32

input: Return reported cytotoxicity at 10 µM; argument: CCn1cc(CN(C)S(=O)(=O)c2ccc(C)c(C)c2)cn1
output: 9.65

input: Return reported cytotoxicity at 10 µM; argument: OCc1csc(N2CCCC(CO)(Cc3cccc(Cl)c3)C2)n1 (stereo unspecified)
output: 8.87

input: Return reported cytotoxicity at 10 µM; argument: Cc1nn(C)c(C)c1OCC(=O)NCC(O)Cc1ccccc1 (stereo unspecified)
output: -3.81

input: Return reported cytotoxicity at 10 µM; argument: Cc1[nH]ccc1C(=O)N(Cc1ccc(O)cc1)CC1CC1
output: 6.99

input: Return reported cytotoxicity at 10 µM; argument: CC1CCN(C(=O)C(C)N2CCc3[nH]nc(C(F)(F)F)c3C2)CC1 (stereo unspecified)
output: 2.54

input: Return reported cytotoxicity at 10 µM; argument: COc1ccc(C(C#N)NC(=O)Cc2ccc(F)c(F)c2)c(OC)c1 (stereo unspecified)
output: 21.6

input: Return reported cytotoxicity at 10 µM; argument: Cc1nnc(N2CC[C@@H](OCC3CC3)[C@@H](Cc3ccccc3)C2)s1
output: 14.4

input: Return reported cytotoxicity at 10 µM; argument: Cc1cn2c(n1)CCC(NC(=O)c1cc(C(C)C)no1)C2 (stereo unspecified)
output: -2.12

input: Return reported cytotoxicity at 10 µM; argument: O=C1CC(c2cccnc2)C2(CCN(C(=O)c3ccncc3)CC2)N1 (stereo unspecified)
output: -6.64
